Recorded Normal melting temperature, one value per entry.
# Assay context: Crystal; DTA
// note: answer is a bare numeric in °C

Look up Normal melting temperature for this compound: CCNc1ccc([N+](=O)[O-])cc1 [N-ethyl-4-nitroaniline]
95.06

Continuing:
Look up Normal melting temperature for this compound: c1ccc(Nc2ccccc2)cc1 [diphenylamine]
53.50

Input CN(C(=O)N(C)c1ccccc1)c1ccccc1 [1,3-dimethyl-1,3-diphenylurea]
120.00

Input CCN(C(=O)N(CC)c1ccccc1)c1ccccc1 [1,3-diethyl-1,3-diphenylurea]
71.87

Input CC(=O)OCCNc1ccc([N+](=O)[O-])cc1 [2-[(4-nitrophenyl)amino]ethanol 1-acetate]
113.87

----------
# Assay summary: Molar enthalpy of transition or fusion
# Assay context: Crystal; DSC
Quantity kind: Molar enthalpy of transition or fusion (kcal/mol)
// note: answer is a bare numeric in kcal/mol

# example entries with known answers
Look up Molar enthalpy of transition or fusion for this molecule: "CCN(C(=O)N(CC)c1ccccc1)c1ccccc1"
8.01

Input "CCNc1ccc([N+](=O)[O-])cc1"
5.43

Input "CN(C(=O)N(C)c1ccccc1)c1ccccc1"
7.91

Continuing:
Look up Molar enthalpy of transition or fusion for this molecule: CC(=O)OCCNc1ccc([N+](=O)[O-])cc1 [2-[(4-nitrophenyl)amino]ethanol 1-acetate]
4.97

Input "c1ccc(Nc2ccccc2)cc1"
4.71
